system: Alopecurus myosuroides (ALOMY); assay: Glasshouse assay for herbicidal activity (pre- and post-emergence), percentage phytotoxicity; format: in vivo; details: Alopecurus myosuroides, pre-emergence, 480 h, Rate 250 g/ha; pre-emergence; assessed visually 20 DAA; 100%=total damage, 0%=no damage; read-out: Pre-emergence herbicidal activity (percentage phytotoxicity) ALOMY PRE
observable: pest or weed control at 250 g/ha (%)

>>> quantitativeresult("COc1ccccc1CNC(=O)CC1CC(=O)C(c2c(C)cc(-c3ncc(Cl)cc3F)cc2C)C1=O (centres unmarked) [Compound A126]")
30
>>> quantitativeresult("Cc1cc(C)c(C2C(=O)CC(CC(=O)N(C)C(C)C)C2=O)c(C)c1 (centres unmarked) [Compound A161]")
20
>>> quantitativeresult("CC#Cc1cc(C)c(C2C(=O)CC(CC(=O)NCCCC)C2=O)c(C)c1 (centres unmarked) [Compound A29]")
100
>>> quantitativeresult("Cc1ccc(-c2cc(C)c(C3C(=O)CC(CC(=O)NCc4cccc(C(F)(F)F)c4)C3=O)c(C)c2)nc1 (centres unmarked) [Compound A158]")
20
>>> quantitativeresult("Cc1cc(C)c(C2C(=O)CC(CC(=O)NC(C)c3ccc(F)cc3)C2=O)c(C)c1 (centres unmarked) [Compound A93]")
90
>>> quantitativeresult("CC#Cc1cc(C)c(C2C(=O)CC(CC(=O)NC(C)C)C2=O)c(C)c1 (centres unmarked) [Compound A8]")
100
>>> quantitativeresult("Cc1cc(C)c(C2C(=O)CC(CC(=O)N(C)CC(C)C)C2=O)c(C)c1 (centres unmarked) [Compound A159]")
60
>>> quantitativeresult("Cc1cc(C)c(C2C(=O)CC(CC(=O)NC(C)C)C2=O)c(C)c1 (centres unmarked) [Compound A7]")
80
